- Protocol description: Selectivity index, ratio of IC50 for human […] cells to IC50 for Plasmodium falciparum K1
- Format: toxicity, cell-based
- Conditions: MCR5 cells (cytotoxicity) versus Plasmodium falciparum K1, read-out: Ratio IC50
selectivity ratio vs 100: less than gives yes (1); not less than gives no (0).

Prompt line: I wonder whether "CC[C@H](C)[C@H](NC(=O)[C@@H]1CCC[C@H]1[C@@H]1C/C=C/C=C(/C#N)[C@H](O)[C@@H](C)C[C@H](C)C[C@H](C)C[C@H](C)[C@@H](O)CC(=O)O1)C(=O)O" has selectivity ratio below 100. Can you tell?
Response line: no (0)

Prompt line: I wonder whether "C[C@@H]1C[C@H](C)C[C@H](C)[C@@H](O)CC(=O)O[C@H]([C@@H]2CCC[C@H]2C(=O)N[C@@H](CO)C(=O)O)C/C=C/C=C(/C#N)[C@H](O)[C@@H](C)C1" has selectivity ratio below 100. Can you tell?
Response line: no (0)

Prompt line: I wonder whether "CC(C)SC(=O)[C@@H]1CCC[C@H]1[C@@H]1C/C=C/C=C(/C#N)[C@H](O)[C@@H](C)C[C@H](C)C[C@H](C)C[C@H](C)[C@@H](O)CC(=O)O1" has selectivity ratio below 100. Can you tell?
Response line: no (0)

Prompt line: I wonder whether "CCCCSC(=O)[C@@H]1CCC[C@H]1[C@@H]1C/C=C/C=C(/C#N)[C@H](O)[C@@H](C)C[C@H](C)C[C@H](C)C[C@H](C)[C@@H](O)CC(=O)O1" has selectivity ratio below 100. Can you tell?
Response line: yes (1)

Prompt line: I wonder whether C[C@@H]1CC[C@H]2[C@@H](C)C(=O)O[C@@H]3O[C@@]4(C)CC[C@@H]1[C@]32OO4 [ARTEMISININ] has selectivity ratio below 100. Can you tell?
Response line: no (0)

###

- Protocol description: Selectivity index, ratio of IC50 for human […] cells to IC50 for Plasmodium falciparum FCR-3
- Type: toxicity, cell-based
- Conditions: MCR5 cells (cytotoxicity) versus Plasmodium falciparum FCR-3, read-out: Ratio IC50
Assign selectivity ratio to each entry below.
Give the value as a plain number.

So for "C[C@@H]1CC[C@H]2[C@@H](C)C(=O)O[C@@H]3O[C@@]4(C)CC[C@@H]1[C@]32OO4" , the logged selectivity ratio turned out to be 7530

So for "C[C@@H]1C[C@H](C)C[C@H](C)[C@@H](O)CC(=O)O[C@H]([C@@H]2CCC[C@H]2C(=O)N[C@@H](Cc2ccc(O)cc2)C(=O)O)C/C=C/C=C(/C#N)[C@H](O)[C@@H](C)C1" , the logged selectivity ratio turned out to be 197

So for "CC(C)SC(=O)[C@@H]1CCC[C@H]1[C@@H]1C/C=C/C=C(/C#N)[C@H](O)[C@@H](C)C[C@H](C)C[C@H](C)C[C@H](C)[C@@H](O)CC(=O)O1" , the logged selectivity ratio turned out to be 142

So for "CCOC(=O)[C@@H]1CCC[C@H]1[C@@H]1C/C=C/C=C(/C#N)[C@H](O)[C@@H](C)C[C@H](C)C[C@H](C)C[C@H](C)[C@@H](O)CC(=O)O1" , the logged selectivity ratio turned out to be 939

So for "C[C@@H]1C[C@H](C)C[C@H](C)[C@@H](O)CC(=O)O[C@H]([C@@H]2CCC[C@H]2C(=O)O)C/C=C/C=C(/C#N)[C@H](O)[C@@H](C)C1" , the logged selectivity ratio turned out to be 228
